# reported z-score; entries follow
# method.description: supercomplex reporter luminescence per Hoechst cell count – Hoechst nuclei count (AID 1645838);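 further: control cybrid cells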;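 on z-score: higher means more mitochondrial supercomplex formation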
# measurement.parameters: Cells, luminescence/Hoechst cell count ratio, library stock concentration (final well concentration not given) 400 uM, stronger effect = higher value
Screen size: about 2,000 compounds; about 100 (5%) were called active. Shown is part of a subset that was picked to be rich in actives.
Reply with the value as a number alone.

{"compound": "COC1CC2CCC(C)C(O)(O2)C(=O)C(=O)N2CCCCC2C(=O)OC(C(C)CC2CCC(O)C(OC)C2)CC(=O)C(C)C=C(C)C(O)C(OC)C(=O)C(C)CC(C)C=CC=CC=C1C (stereo not drawn)", "z-score": 0.731}
{"compound": "COc1cc(N2CCC(C(N)=O)CC2)ccc1Nc1nc(N)c(Cl)c(Nc2ccccc2S(=O)(=O)C(C)C)n1", "z-score": -0.357}
{"compound": "COCCOc1ccc2c(c1)ncn2-c1ccc2cccc(N3CCC(N)CC3)c2n1", "z-score": 2.21}
{"compound": "COc1cc(C)c(Sc2cnc(NC(=O)c3ccc(CNC(C)C(C)C)cc3)s2)cc1C(=O)N1CCN(C(C)=O)CC1 (stereo not drawn)", "z-score": -0.307}
{"compound": "CC#C[C@]1(O)CC[C@@H]2[C@@H]3CCC4=CC(=O)CCC4=C3C(c3ccc(N(C)C)cc3)C[C@@]21C (stereo partly drawn)", "z-score": -0.414}
{"compound": "CC1CN(Cc2ccccc2)CC1c1nc2c(cnn2C2CCOCC2)c(=O)[nH]1 (stereo not drawn)", "z-score": -0.201}
{"compound": "Cc1cc(N2CCOCC2)cc2[nH]c(-c3c(NCC(O)c4cccc(Cl)c4)cc[nH]c3=O)nc12 (stereo not drawn)", "z-score": 0.0421}
{"compound": "CCC(CO)Nc1nc(NCc2ccccc2)c2ncn(C(C)C)c2n1 (stereo not drawn)", "z-score": -0.53}
{"compound": "Nc1nc(OC(c2ccc(-c3cccc(F)c3)cc2)C(F)(F)F)cc(-c2ccc(CC(N)C(=O)O)cc2)n1 (stereo not drawn)", "z-score": -0.406}
{"compound": "CC(C)(C)OC(=O)N1CCC(OC2CCNCC2)CC1", "z-score": 0.196}

*Q* What value of z-score has been recorded for this entry: Cc1ccc(COC(=O)N2CCC(CNc3ncccn3)C(F)C2)cc1 (stereo not drawn)
*A* 0.087

*Q* What value of z-score has been recorded for this entry: `Cc1nc(Nc2ncc(C(=O)Nc3c(C)cccc3Cl)s2)cc(N2CCN(CCO)CC2)n1`
*A* 5.15

----------
# reported cell count; entries follow
# method.description: supercomplex reporter luminescence per Hoechst cell count – Hoechst nuclei count (AID 1645838);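 further: control cybrid cells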
# measurement.parameters: Cells, luminescence/Hoechst cell count ratio, measured here: cell number, Hoechst nuclei count, library stock concentration (final well concentration not given) 2 mM
Hit rate of the full screen: of about 2,000 compounds, about 100 (5%) were called active. Shown is part of a subset that was picked to be rich in actives.
Reply with the value as a number alone.

Sample answers from the record:
{"molecule": "CCOc1ccc(-n2c(C(C)N(Cc3cccnc3)C(=O)Cc3ccc(F)c(C(F)(F)F)c3)nc3ncccc3c2=O)cc1 (centres undefined)", "cell count": 5970}
{"molecule": "COc1cc(Cc2cnc(N)nc2N)c2c(c1OC)OC(C1CC1)C=C2 (centres undefined)", "cell count": 5260}
{"molecule": "CN(C)C(=O)c1cc2cnc(Nc3ccc(N4CCNCC4)cn3)nc2n1C1CCCC1", "cell count": 4600}
{"molecule": "Cn1ncnc1C1c2n[nH]c(=O)c3cc(F)cc(c23)NC1c1ccc(F)cc1 (centres undefined)", "cell count": 1700}
{"molecule": "Cc1nc2ccc(-n3ncc(C(=O)c4cc5ccccc5[nH]4)c3N)cc2[nH]1", "cell count": 5510}

Now, please, on to the next molecule.
*Q* What value of cell count has been recorded for this entry: CC1(C)OC2CO[C@@]3(COS(N)(=O)=O)OC(C)(C)OC3C2O1 (some centres undefined)
*A* 5750
